Tested on: Salmonella typhi
Assay: Antibacterial activity against Salmonella typhi MTCC 98 assessed as growth inhibition after overnight incubation by NCCLS broth microdilution method
Format: functional, Salmonella enterica subsp. enterica serovar Typhi
Settings: Salmonella enterica
PARAMETER MEASURED: MIC

Consider the reported MIC for these compounds:
                                   compound         tested_on  observed_value
0  N#CC1=C(N)N(c2cccc(C(F)(F)F)c2)C2=C(C(=O)CCC2)C1c1cc2ccccc2nc1Oc1ccc(C#N)cc1 (stereo unspecified)  Salmonella typhi       250 µg/mL
1  COc1ccc2nc(Oc3ccc(C#N)cc3)c(C3C(C#N)=C(N)N(c4ccc(F)c(F)c4)C4=C3C(=O)CC(C)(C)C4)cc2c1 (stereo unspecified)  Salmonella typhi       200 µg/mL

Problem: What measured MIC goes with COc1ccc2nc(Oc3ccc(C#N)cc3)c(C3C(C#N)=C(N)N(c4cccc(C(F)(F)F)c4)C4=C3C(=O)CC(C)(C)C4)cc2c1 (stereo unspecified) ?
Solution: 200 µg/mL

Problem: Need MIC of COc1ccc2nc(Oc3ccc(C#N)cc3)c(C3C(C#N)=C(N)N(c4cc(F)ccc4F)C4=C3C(=O)CCC4)cc2c1 (stereo unspecified) , thanks.
Solution: 100 µg/mL

Problem: What value of MIC has been reported for the following compound? COc1ccc2nc(Oc3ccc(C#N)cc3)c(C3C(C#N)=C(N)N(c4ccc(F)c(F)c4)C4=C3C(=O)CCC4)cc2c1 (stereo unspecified)
Solution: 500 µg/mL

Problem: Recorded MIC for N#Cc1ccc(Oc2nc3ccc(Cl)cc3cc2C=O)cc1 , please?
Solution: 200 µg/mL
